Experiment: folding stability dG unfold from chymotrypsin proteolysis; higher = more stable
folding stability dG unfold overview
Report only the number, with the unit kcal/mol understood.

Please review the entries below; each comes with its answer.
[
  {
    "biopolymer sequence": "SAGKMTIEIVVEVKPGMTEEELKEKLEELVKKLKEEFPELKNLEIKIVEVKVERLEDGTLRVTVKIEVKSAG [r5_985_TrROS_Hall]",
    "value kind": "folding stability dG unfold",
    "observed": 3.08
  },
  {
    "biopolymer sequence": "SAGGSAGGSASPQVVEVLSTVPLPGSNIVIEKTSDASGNSYVYDPNTGKWFSPEEAKKLLSSAGGSAGGSAG [r3_206_JUSTAS]",
    "value kind": "folding stability dG unfold",
    "observed": 1.73
  },
  {
    "biopolymer sequence": "SAGGSAGGSAGKTVVIEIKGMSKEQVLNLIKELAEKYPNSKIIITNENGEKIEINVKDLKSAGGSAGGSAGG [r11_541_TrROS_Hall]",
    "value kind": "folding stability dG unfold",
    "observed": 3.34
  }
]

Let us examine a further case.
folding stability dG unfold for SAGGKMVIVKIRIKERKVKVEKTKDGKEKKVEVEEKEKEITLIVEGSEEEVKKLAEELEKLGLEVEVISAGG [r13_452_TrROS_Hall] ?
2.52

====

Assay: folding stability dG unfold from chymotrypsin proteolysis; higher = more stable
value kind: folding stability dG unfold

folding stability dG unfold for SAGMTIKIKNKKTNKVITIERRPDGTTVKVKVYDKNGKLVKTYPEGMTLEELLKKFPNAKVEVVEVEKPSAG [r5_314_TrROS_Hall] ?
0.559 kcal/mol

folding stability dG unfold for SAGGAPNWKIEKIEIEYPGRKIEVWRHDNMWFIHIPAPPGYPIRIKIKIEPDNGETQTQERTFPIPPPSAGG [r13_191_TrROS] ?
2.83 kcal/mol

====

Assay: folding stability dG unfold from chymotrypsin proteolysis; higher = more stable
value kind: folding stability dG unfold (kcal/mol)
Report only the number, with the unit kcal/mol understood.

Please review the entries below; each comes with its answer.
[
  {
    "biopolymer sequence": "SAGGSAGGSAPSKKVKFKVLAKNTKTGKYKEIDITAEVPVSNGKVVSIEELLKKFPDFELKPSAGGSAGGSA [r18_267_TrMRF]",
    "folding stability dG unfold, kcal/mol": 0.0845
  },
  {
    "biopolymer sequence": "SAGGSAGGSAGGMPVPRRLEIVVEPEYTEEEIEKIKKELIENGNPEIEEVVVVLPPNLESAGGSAGGSAGGS [r10_233_JUSTAS]",
    "folding stability dG unfold, kcal/mol": 0.285
  },
  {
    "biopolymer sequence": "SAGGSAGGSAMLRIRFENGLEIEIPKDMTLEELKKLAEELAEELKKEGKEVEVKIVEIEPVPSAGGSAGGSA [r18_213_TrROS_Hall]",
    "folding stability dG unfold, kcal/mol": 2.21
  },
  {
    "biopolymer sequence": "SIKIEPHPDGFFMLRFPDNGHKIMIRVDPEKGKVKIMFETPGQPVEQEIDPDEGTITIEFPNNKIEIPIKSA [r9_541_TrROS]",
    "folding stability dG unfold, kcal/mol": 1.14
  },
  {
    "biopolymer sequence": "SAGEELIKKLAEELNLEVEIVSVEVDEETPTITVEVRVRNKDGEELTVRITITYDKETDEVHIEVEVLPSAG [r5_929_TrROS_Hall]",
    "folding stability dG unfold, kcal/mol": 3.99
  }
]

folding stability dG unfold for SAGGSAGGSAGGKIKILKKNKTKEEIKKELAEKYNVKKIEIKPIKGNTYLVEIEVEPEESAGGSAGGSAGGS [r10_1219_TrMRF] ?
0.634

folding stability dG unfold for SAGGSAGMMKVTTTPVSADTVRVTVTVPGGPFTVTVTQNGVPLLTRTVPADATLTITLPPNATVVGSAGGSA [r15_581_JUSTAS] ?
1.94
